Attribution: PubChem BioAssay AID624202

METHOD_SUMMARY: qHTS Assay to Identify Small Molecule Activators of BRCA1 Expression; further: nearly all actives have a fitted effect of over 80% in size
ASSAY_CONTEXT: MCF7-BRCA1-FFLuc reporter, luminescence, 48 h; series mostly up to 46.1 µM
Out of some 380,000 compounds screened, about 4,000 (1.1%) were called active. About 3% were inconclusive and are not listed. The call rests on the fitted dose curve; in most records, active means well fitted activation curve with a large enough effect; inconclusive means small, poorly fitted or top-dose-only effect; inactive means no such curve, though single readings can be large or run the other way. What follows is part of a selection rich in actives, with near analogues and random picks from the rest.
Respond with a class label; see 1 = active, 0 = inactive

Inquiry: Entry COc1ccc(-c2nnc(SCC(=O)Nc3ccccc3C)o2)cc1OC : call = ?
Reply text: 0

Inquiry: Check the results log: what was the call for CCN(C(=O)CSc1nnc(-c2ccncc2)o1)c1ccccc1 ?
Reply text: 0

Inquiry: I'd appreciate the recorded outcome for Cc1ccccc1CSc1nnc(CCCCCNC(=O)OC(C)(C)C)o1 from this test.
Reply text: 0

Inquiry: Test call for this compound, please: CC(C)CNC(=S)NNC(=O)c1ccccc1OC(F)F
Reply text: 0

Inquiry: Look up the recorded call for CCN(CC)C(=O)C1=C(C)N(Cc2ccc(OC)cc2)C(=O)C(CC(=O)NCc2ccco2)C1 (stereo not given) in this test.
Reply text: 0

Inquiry: I would be grateful if you could indicate the recorded call for COc1ccc2c(c1)CCc1c(C(=O)N3CCc4ccccc4C3)noc1-2 .
Reply text: 0

Inquiry: Status in this test for Cc1ccc(-c2nnc(SCc3ccccc3C)o2)cc1 ?
Reply text: 1

Inquiry: Look up the recorded call for CCCCSc1nnc(-c2ccc(C)cc2)o1 in this test.
Reply text: 1

Inquiry: Tell me the assay call for O=C1N/C(=N\N=C\c2ccco2)SC1Cc1ccc(F)cc1 (stereo not given) please.
Reply text: 0

Inquiry: Could you check what this test reported for CN(c1ccc(C(=O)N2CCc3ccccc3C2)cc1)S(C)(=O)=O ?
Reply text: 0

====

METHOD_SUMMARY: qHTS Assay to Identify Small Molecule Activators of BRCA1 Expression; further: nearly all actives have a fitted effect of over 80% in size; further: potency means the concentration at half of the fitted maximal effect
ASSAY_CONTEXT: MCF7-BRCA1-FFLuc reporter, luminescence, 48 h; series mostly up to 46.1 µM
Among all 380,000 compounds or so, about 4,000 (1.1%) were called active. Another 3% or so got no clear call; they are omitted. The list comes from a sample in which actives are over-represented; it also holds close analogues and randomly drawn compounds.
QUANTITY: Potency

>>> endpoint_value("COC(=O)c1ccc(CSc2nncn2C)cc1")
"10 µM (active)"
>>> endpoint_value("CC(C)Oc1ccc(CNC(=O)C2CCN(c3nc4ccccc4n(C)c3=O)CC2)cc1")
"inactive"
>>> endpoint_value("COCc1cc(C)n(CC(=O)NCC2CCCO2)c(=O)c1C#N (configuration not stated)")
"inactive"
>>> endpoint_value("COc1ccccc1CNCc1ccc(C(=O)O)s1")
"inactive"
>>> endpoint_value("CC(Sc1nncn1C)C(=O)NCCC1=CCCCC1 (configuration not stated)")
"inactive"

Inquiry: So what's the measured Potency for this one? O=C(COc1cccc(-n2cnnn2)c1)NCCC1=CCCCC1
Reply text: inactive

Inquiry: Entry CN(C)c1ccc(C(CC(=O)O)C(=O)O)cc1 (configuration not stated) has what Potency?
Reply text: inactive

Inquiry: What does the record list as Potency for O=C(COc1ccccc1F)OCc1cc(=O)n2nc(C3CCCCC3)sc2n1 ?
Reply text: inactive

Inquiry: Look at this molecule and give its reported Potency. Cc1c(C)c(C)c(S(=O)(=O)NCCc2ccccn2)c(C)c1C
Reply text: inactive

Inquiry: Fill in: Potency of O=C(NCCC1=CCCCC1)c1ccc(Cl)c([N+](=O)[O-])c1 is ___
Reply text: 7.94 µM (active)

Inquiry: Data request, read-out Potency, for O=C(CSc1nnc(-c2ccncc2)n1-c1ccccc1)Nc1ccc(Cl)c(Cl)c1
Reply text: inactive

Inquiry: Consider the molecule shown here: CN(C)c1ccc(N/C=C/C(=O)C(F)(F)F)cc1 What is its recorded Potency?
Reply text: inactive
